System: Direct Seeded Rice and weed species
Assay Comment: Postemergence herbicidal activity in direct seeded rice, visual rating after 20-22 days and probit GR20/GR50/GR80/GR90 (Table 14)
Assay type: in vivo
Settings: post-emergence, 504 h; ORYSK (Oryza sativa, rice crop); 35 g ai/ha; postemergence; read-out: Visual Growth Reduction (%) 21 Days After Application ORYSK
Property: pest or weed control at 35 g/ha

// worked examples, pest or weed control at 35 g/ha included
COC(=O)c1nc(-c2ccc3c(c2F)OC(F)(F)O3)c(F)c(N)c1Cl    45 to 59%
COC(=O)c1nc(-c2ccc3c(c2F)OC(F)(F)O3)cc(N)c1Cl    0 to 29%
Nc1c(F)c(-c2cc3c(cc2F)OC(F)(F)O3)nc(C(=O)O)c1Cl    45 to 59%

Report pest or weed control at 35 g/ha for each item below.
1. Nc1cc(-c2ccc3c(c2F)OC(F)(F)O3)nc(C(=O)O)c1Cl
2. COc1c(N)nc(-c2ccc3c(c2F)OC(F)(F)O3)nc1C(=O)O

Result ::
1. 75 to 84%
2. 60 to 74%
